All figures here come from patent US11186577B2.

Catalogue of IC50 readings, one per entry.
Target: human Oxytocin Receptor (hOTR) (Homo sapiens (Human), UniProt P30559)
Sequence (P30559 whole entry): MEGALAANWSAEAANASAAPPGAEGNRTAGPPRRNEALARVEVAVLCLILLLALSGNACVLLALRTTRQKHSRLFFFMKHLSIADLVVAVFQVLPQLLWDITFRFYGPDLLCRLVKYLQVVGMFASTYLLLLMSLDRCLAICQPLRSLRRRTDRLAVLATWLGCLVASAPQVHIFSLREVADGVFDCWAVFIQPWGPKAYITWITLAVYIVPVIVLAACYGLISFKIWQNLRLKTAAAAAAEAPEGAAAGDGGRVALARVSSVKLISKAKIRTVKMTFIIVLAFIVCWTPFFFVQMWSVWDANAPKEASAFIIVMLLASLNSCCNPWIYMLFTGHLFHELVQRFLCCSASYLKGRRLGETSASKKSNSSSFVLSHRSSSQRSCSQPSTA
Test: Oxytocin receptor antagonist assay (oxytocin-evoked calcium, FLIPR, CHEM-1-hOTR cells)
Format: cell-based
Settings: read-out: OT IC50
test.readout: IC50

# molecule, result
data = [
    ("CC1c2nnc(C3CC4(C3)CN(c3ncc(F)cn3)C4)n2-c2ccc(Cl)cc2CN1C(=O)OC1CC1 (single isomer, unassigned) [Cpd 192A]", "> 1000 nM"),
    ("CC(C)OC(=O)N1Cc2cc(Cl)ccc2-n2c(C3CC4(C3)CN(c3ccc(F)cn3)C4)nnc2C1C (single isomer, unassigned) [Cpd 163A]", "100 to 500 nM"),
    ("COC(=O)N1Cc2cc(Cl)ccc2-n2c(C3CC4(C3)CN(c3cccc(C)n3)C4)nnc2C1C (centres unmarked) [compound 180]", "100 to 500 nM"),
    ("CCC(=O)N1Cc2cc(Cl)ccc2-n2c(nnc2C2CC3(C2)CN(c2ccc(F)nn2)C3)C1 [compound 112]", "> 1000 nM"),
    ("CC1c2nnc(C3CC4(C3)CN(c3ncccn3)C4)n2-c2ccc(Cl)cc2CN1C(=O)C1(F)CC1 (centres unmarked) [compound 175]", "> 1000 nM"),
    ("CC1c2nnc(C3CC4(C3)CN(c3ncccn3)C4)n2-c2ccc(Cl)cc2CN1C(=O)OC1(C)CC1 (single isomer, unassigned) [Cpd 205A]", "500 to 1000 nM"),
    ("CCOC(=O)N1Cc2cc(Cl)ccc2-n2c(C3CC4(C3)CN(c3nccc(C(F)F)n3)C4)nnc2C1C (centres unmarked) [compound 189]", "> 1000 nM"),
    ("COC(=O)N1Cc2cc(Cl)ccc2-n2c(C3CC4(C3)CN(c3ccc(F)cn3)C4)nnc2C1C (centres unmarked) [compound 142]", "500 to 1000 nM"),
    ("CC1c2nnc(C3CC4(C3)CN(c3ncc(F)cn3)C4)n2-c2ccc(Cl)cc2CN1C(=O)OC1(C)CC1 (centres unmarked) [compound 173]", "100 to 500 nM"),
    ("CCC(=O)N1Cc2cc(Cl)ccc2-n2c(nnc2C2CC3(C2)CN(C(=O)C2CC2)C3)C1 [compound 16]", "> 1000 nM"),
    ("CC1c2nnc(C3CC4(C3)CN(c3ccc(F)cn3)C4)n2-c2ccc(Cl)cc2CN1C(=O)OC1CC1 (single isomer, unassigned) [Cpd 191A]", "100 to 500 nM"),
    ("Cc1ccc(N2CC3(CC(c4nnc5n4-c4ccc(Cl)cc4CN(C)C5)C3)C2)nc1 [compound 12]", "> 1000 nM"),
    ("Clc1ccc2c(c1)CN(C1COC1)Cc1nnc(C3CC4(C3)CN(c3ccccn3)C4)n1-2 [compound 57]", "> 1000 nM"),
    ("Fc1ccc(N2CC3(CC(c4nnc5n4-c4ccc(Cl)cc4CN(C4CCC4)C5)C3)C2)nc1 [compound 42]", "500 to 1000 nM"),
]
